# STUDY_SYSTEM: neurokinin A (NKA) receptor (NK-2) (Mesocricetus auratus, UniProt P51144)
# Construct: displace I125 labeled NKA from hamster urinary bladder; from tissue; host or cells: hamster urinary bladder (membranes in A1, chopped tissue in A4)
# MEASUREMENT_PROTOCOL: displacement of I125 labeled NKA from hamster urinary bladder membranes
# Assay type: binding
Residues, ends and D or L forms follow the SMILES beside them.
Give measured IC50 for each item. Keep answers brief.
# number only, unit nM dropped from output

Read off the recorded IC50 for CC(C)C[C@H](NC(=O)[C@H](CC(C)C)NC(=O)CNC(=O)[C@@H](NC(=O)[C@H](Cc1ccccc1)NC(=O)[C@H](CO)NCCCC(=O)O)C(C)C)C(N)=O [MDL 101,905] (HELM PEPTIDE1{[O=C(O)CCCN[C@@H](CO)C(=O)[*:2]].F.V.G.L.L.[am]}$$$$V2.0)
2000

Provide one value: measured IC50 of CCCN(C[C@H](CC(C)C)NC(=O)CNC(=O)[C@@H](NC(=O)[C@H](Cc1ccccc1)NC(=O)[C@H](CO)NC(=O)[C@@H](N)CC(=O)O)C(C)C)[C@@H](CC(C)C)C(N)=O [MDL 102,863] (HELM PEPTIDE1{D.S.F.V.G.[CCCN(C[C@H](CC(C)C)N[*:1])[C@@H](CC(C)C)C(N)=O]}$$$$V2.0)
103

Dear colleague, please send me the reported IC50 for CCN(C[C@H](CC(C)C)NC(=O)CNC(=O)[C@@H](NC(=O)[C@H](Cc1ccccc1)NC(=O)[C@H](CO)NC(=O)[C@@H](N)CC(=O)O)C(C)C)[C@@H](CC(C)C)C(N)=O [MDL 29,716] (HELM PEPTIDE1{D.S.F.V.G.[CCN(C[C@H](CC(C)C)N[*:1])[C@@H](CC(C)C)C(N)=O]}$$$$V2.0) when you can.
257

###

Kindly supply the reported IC50 values for the records listed here.
Target chain: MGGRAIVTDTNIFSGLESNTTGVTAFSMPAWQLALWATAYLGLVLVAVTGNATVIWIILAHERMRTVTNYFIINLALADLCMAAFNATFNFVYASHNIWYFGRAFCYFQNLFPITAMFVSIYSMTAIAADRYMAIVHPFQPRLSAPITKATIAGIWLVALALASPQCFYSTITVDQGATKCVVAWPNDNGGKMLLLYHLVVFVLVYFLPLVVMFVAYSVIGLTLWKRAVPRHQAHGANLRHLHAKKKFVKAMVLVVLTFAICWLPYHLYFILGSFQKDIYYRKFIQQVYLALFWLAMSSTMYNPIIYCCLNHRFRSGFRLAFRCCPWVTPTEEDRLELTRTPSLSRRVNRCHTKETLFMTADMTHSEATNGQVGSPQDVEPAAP
Residues, ends and D or L forms follow the SMILES beside them.
Give the number; nM is assumed, so skip it.

Quickly give me recorded IC50 for CC(C)C[C@@H](CN[C@@H](Cc1ccccc1)C(N)=O)NC(=O)CNC(=O)[C@@H](NC(=O)[C@H](Cc1ccccc1)NC(=O)[C@H](CO)NC(=O)[C@@H](N)CC(=O)O)C(C)C [MDL 101,382] (HELM PEPTIDE1{D.S.F.V.G.[CC(C)C[C@@H](CN[C@@H](Cc1ccccc1)C(N)=O)N[*:1]]}$$$$V2.0)
5

Provide one value: measured IC50 of CC(C)C[C@@H](CN[C@@H](CC(C)C)C(N)=O)NC(=O)CNC(=O)[C@@H](NC(=O)[C@H](Cc1ccccc1)NC(=O)[C@H](CO)NC(=O)[C@@H](N)CC(=O)O)C(C)C [MDL 28,564] (HELM PEPTIDE1{D.S.F.V.G.[CC(C)C[C@@H](CN[C@@H](CC(C)C)C(N)=O)N[*:1]]}$$$$V2.0)
157

Report IC50, nothing else, for this molecule: CSCC[C@H](NC[C@H](CC(C)C)NC(=O)CNC(=O)[C@@H](NC(=O)[C@H](Cc1ccccc1)NC(=O)[C@H](CO)NC(=O)[C@@H](N)CC(=O)O)C(C)C)C(N)=O [MDL 29,646] (HELM PEPTIDE1{D.S.F.V.G.[CSCC[C@H](NC[C@H](CC(C)C)N[*:1])C(N)=O]}$$$$V2.0)
50

Name the recorded IC50 of the molecule listed here: CC(C)C[C@@H](CN[C@@H](CC(C)C)C(N)=O)NC(=O)CCNC(=O)[C@@H](NC(=O)[C@H](Cc1ccccc1)NC(=O)[C@H](CO)NC(=O)[C@@H](N)CC(=O)O)C(C)C [MDL 102,500] (HELM PEPTIDE1{D.S.F.V.[bAla].[CC(C)C[C@@H](CN[C@@H](CC(C)C)C(N)=O)N[*:1]]}$$$$V2.0)
19

###

# STUDY_SYSTEM: neurokinin A (NKA) receptor (NK-2) (Mesocricetus auratus)
# Construct: displace I125 labeled NKA from hamster urinary bladder; from tissue; host or cells: hamster urinary bladder (membranes in A1, chopped tissue in A4)
# MEASUREMENT_PROTOCOL: displacement of I125 labeled NKA from hamster urinary bladder membranes
# Type: binding
Residues, ends and D or L forms follow the SMILES beside them.
ENDPOINT_NAME: IC50

Please report IC50 for the following compound: CC(C)C[C@H](NC(=O)[C@H](CC(C)C)NC(=O)CNC(=O)[C@H](C(C)C)N(C)C[C@H](Cc1ccccc1)NC(=O)[C@H](CO)NC(=O)[C@@H](N)CC(=O)O)C(N)=O [MDL 29,678] (HELM PEPTIDE1{D.S.[CC(C)[C@@H](C(=O)[*:2])N(C)C[C@H](Cc1ccccc1)N[*:1]].G.L.L.[am]}$$$$V2.0)
> 10 µM

Determine its reported IC50: CC(C)C[C@@H](CO)NC[C@H](CC(C)C)NC(=O)CNC(=O)[C@@H](NC(=O)[C@H](Cc1ccccc1)NC(=O)[C@H](CO)NC(=O)[C@@H](N)CC(=O)O)C(C)C [MDL 102,678] (HELM PEPTIDE1{D.S.F.V.G.[CC(C)C[C@@H](CO)NC[C@H](CC(C)C)N[*:1]]}$$$$V2.0)
> 10 µM

Consider the compound CC(C)C[C@@H](CN(C)[C@@H](CC(C)C)C(N)=O)NC(=O)CNC(=O)[C@@H](NC(=O)[C@H](Cc1ccccc1)NC(=O)[C@H](CO)NC(=O)[C@@H](N)CC(=O)O)C(C)C [MDL 29,916] (HELM PEPTIDE1{D.S.F.V.G.[CC(C)C[C@@H](CN(C)[C@@H](CC(C)C)C(N)=O)N[*:1]]}$$$$V2.0) and give its recorded IC50.
0.21 µM

###

# STUDY_SYSTEM: neurokinin A (NKA) receptor (NK-2) (Mesocricetus auratus)
# Sequence (P51144 1-384): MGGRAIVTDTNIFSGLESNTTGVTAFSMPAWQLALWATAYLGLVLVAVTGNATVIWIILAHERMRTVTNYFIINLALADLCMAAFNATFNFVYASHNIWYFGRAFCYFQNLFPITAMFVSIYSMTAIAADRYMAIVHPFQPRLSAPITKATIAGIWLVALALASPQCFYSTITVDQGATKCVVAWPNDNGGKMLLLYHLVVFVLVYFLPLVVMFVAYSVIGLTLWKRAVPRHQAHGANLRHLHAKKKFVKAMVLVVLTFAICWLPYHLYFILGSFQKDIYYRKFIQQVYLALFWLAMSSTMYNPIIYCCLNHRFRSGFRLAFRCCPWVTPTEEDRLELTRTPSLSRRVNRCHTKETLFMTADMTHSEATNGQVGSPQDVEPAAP
Residues, ends and D or L forms follow the SMILES beside them.
Would you mind telling me the reported IC50 of each entry?

Provide only the value of recorded IC50 for CC(C)C[C@H](NC(=O)[C@H](CC(C)C)N(C)CCNC(=O)[C@@H](NC(=O)[C@H](Cc1ccccc1)NC(=O)[C@H](CO)NC(=O)[C@@H](N)CC(=O)O)C(C)C)C(N)=O [MDL 102,369] (HELM PEPTIDE1{D.S.F.V.[CC(C)C[C@@H](C(=O)[*:2])N(C)CCN[*:1]].L.[am]}$$$$V2.0)
> 10 µM

Provide IC50 value for the following molecule: CC(C)C[C@H](NC(=O)[C@H](CC(C)C)NC(=O)CN(C)C[C@@H](NC(=O)[C@H](Cc1ccccc1)NC(=O)[C@H](CO)NC(=O)[C@@H](N)CC(=O)O)C(C)C)C(N)=O [MDL 29,712] (HELM PEPTIDE1{D.S.F.[CC(C)[C@@H](CN(C)CC(=O)[*:2])N[*:1]].L.L.[am]}$$$$V2.0)
> 5 µM

Give the value of IC50 reported for the following: `CC(C)C[C@H](NC(=O)[C@H](CC(C)C)NC(=O)CNC[C@@H](NC(=O)[C@H](Cc1ccccc1)NC(=O)[C@H](CO)NC(=O)[C@@H](N)CC(=O)O)C(C)C)C(N)=O`
> 5 µM
